Tested on: UACC-257
Assay: Growth inhibition of human UACC257 cells assessed as cell growth at 10 uM after 48 hrs by sulforhodamine B assay relative to control
Assay type: functional
Settings: UACC-257, 48 h, read-out: Activity
Here, each record is paired with measured growth at 10 µM data.
parameter: growth at 10 µM (%)

INSERT INTO measurements (testsmiles, parameter, unitofmeasure, endpointvalue) VALUES
  ('COc1ccc(Cn2cc(C(=O)N/N=C3/C(=O)Nc4c(F)cccc43)nn2)cc1', 'growth at 10 µM', '%', 88.7),
  ('COc1ccc(Cn2cc(C(=O)N/N=C3/C(=O)Nc4ccc(F)c(Cl)c43)nn2)cc1', 'growth at 10 µM', '%', 100),
  ('COc1ccc(Cn2cc(C(=O)N/N=C3/C(=O)Nc4c(Cl)cccc43)nn2)cc1', 'growth at 10 µM', '%', 92.9),
  ('COc1ccc(Cn2cc(C(=O)N/N=C3/C(=O)Nc4ccc(C)cc43)nn2)cc1', 'growth at 10 µM', '%', 101),
  ('COc1ccc(Cn2cc(C(=O)N/N=C3/C(=O)Nc4ccc(F)cc43)nn2)cc1', 'growth at 10 µM', '%', 91);

---

System: EKVX
Assay: Growth inhibition of human EKVX cells assessed as cell growth at 10 uM after 48 hrs by sulforhodamine B assay relative to control
Assay type: functional
Conditions: read-out: Activity
parameter: growth at 10 µM (%)

INSERT INTO measurements (testsmiles, parameter, unitofmeasure, endpointvalue) VALUES
  ('COc1ccc(Cn2cc(C(=O)N/N=C3/C(=O)Nc4c(Cl)cccc43)nn2)cc1', 'growth at 10 µM', '%', 102),
  ('COc1ccc(Cn2cc(C(=O)N/N=C3/C(=O)Nc4ccc(F)cc43)nn2)cc1', 'growth at 10 µM', '%', 106),
  ('COc1ccc(Cn2cc(C(=O)N/N=C3/C(=O)Nc4c(F)cccc43)nn2)cc1', 'growth at 10 µM', '%', 107),
  ('COc1ccc(Cn2cc(C(=O)N/N=C3/C(=O)Nc4ccc(Br)cc43)nn2)cc1', 'growth at 10 µM', '%', 106),
  ('COc1ccc(Cn2cc(C(=O)N/N=C3/C(=O)Nc4ccc(C)cc43)nn2)cc1', 'growth at 10 µM', '%', 108),
  ('COc1ccc(Cn2cc(C(=O)N/N=C3/C(=O)Nc4ccccc43)nn2)cc1', 'growth at 10 µM', '%', 104),
  ('COc1ccc(Cn2cc(C(=O)N/N=C3/C(=O)Nc4c(C)cccc43)nn2)cc1', 'growth at 10 µM', '%', 107),
  ('COc1ccc(Cn2cc(C(=O)N/N=C3/C(=O)Nc4ccc(Cl)cc43)nn2)cc1', 'growth at 10 µM', '%', 106),
  ('COc1ccc(Cn2cc(C(=O)N/N=C3/C(=O)Nc4ccc(F)c(Cl)c43)nn2)cc1', 'growth at 10 µM', '%', 108);

---

Here, each record is paired with measured growth at 10 µM data.
System: UO-31
Assay: Growth inhibition of human UO31 cells assessed as cell growth at 10 uM after 48 hrs by sulforhodamine B assay relative to control
Type: functional
Conditions: UO-31, 48 h, read-out: Activity
parameter: growth at 10 µM (%)

INSERT INTO assay_data (testsmiles, parameter, unitofmeasure, endpointvalue) VALUES
  ('COc1ccc(Cn2cc(C(=O)N/N=C3/C(=O)Nc4ccc(Br)cc43)nn2)cc1', 'growth at 10 µM', '%', 91.5),
  ('COc1ccc(Cn2cc(C(=O)N/N=C3/C(=O)Nc4ccc(Cl)cc43)nn2)cc1', 'growth at 10 µM', '%', 90.7),
  ('COc1ccc(Cn2cc(C(=O)N/N=C3/C(=O)Nc4ccc(F)c(Cl)c43)nn2)cc1', 'growth at 10 µM', '%', 92.4);
